# system-tested: PKBα(h) (Homo sapiens, UniProt P31749)
# Sequence (P31749 whole entry): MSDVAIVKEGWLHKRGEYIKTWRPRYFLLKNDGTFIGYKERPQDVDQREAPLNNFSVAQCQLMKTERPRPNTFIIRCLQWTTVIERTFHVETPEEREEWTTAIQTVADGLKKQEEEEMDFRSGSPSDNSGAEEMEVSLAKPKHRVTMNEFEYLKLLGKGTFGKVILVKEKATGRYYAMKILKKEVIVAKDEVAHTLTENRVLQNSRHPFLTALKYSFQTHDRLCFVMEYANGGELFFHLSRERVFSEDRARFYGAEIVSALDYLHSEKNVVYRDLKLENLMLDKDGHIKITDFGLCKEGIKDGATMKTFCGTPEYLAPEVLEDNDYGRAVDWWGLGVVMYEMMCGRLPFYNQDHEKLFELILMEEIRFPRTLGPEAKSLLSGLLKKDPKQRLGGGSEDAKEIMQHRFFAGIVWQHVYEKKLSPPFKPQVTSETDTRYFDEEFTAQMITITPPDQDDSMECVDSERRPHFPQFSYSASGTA
# assay-notes: Kinase Profiling Assay
# Type: biochemical
# condition-parameters: peptide 100 μM
parameter: % activity (%)

In [3]: df
Out[3]:
                             input_sequence  reported_value
0        KAFAKLAARLYRKALARQLGVAA [MMI-0400]              67
1  HRRIKAWLKKIKALARQLGVAA (Mammal) [MMI-0500]              30
2          FAKLAARLYRKALARQLGVAA [MMI-0300]              57
3  YARAAARQARAKALNRQLGVA (Mammal) [MMI-0200]             110

Where do these numbers come from? They come from patent US20150258192A1.
